Recorded koff for the following binders
Biological target: T1, Monomeric human CD48-mmH (human)
T1 construct: also called soluble CD48 expressed with a myc-myc-hexa-histidine C-terminal tag [mmH]
T1 chain: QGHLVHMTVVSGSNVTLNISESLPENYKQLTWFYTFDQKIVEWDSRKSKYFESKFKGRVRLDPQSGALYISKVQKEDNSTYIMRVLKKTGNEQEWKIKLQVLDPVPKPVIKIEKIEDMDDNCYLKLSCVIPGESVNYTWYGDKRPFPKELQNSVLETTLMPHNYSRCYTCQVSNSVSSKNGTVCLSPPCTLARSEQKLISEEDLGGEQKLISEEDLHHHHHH
Experiment: SPR (Biacore T100), 25 C, antibody captured by anti-Fc, monomeric CD48-mmH in solution
Just the number please, in s⁻¹, no unit attached.

Binder	Metric	Data value
H4H1763N (antibody, human IgG4, V domains shown, Human IgG4 Fc (prefix H4H)) VH: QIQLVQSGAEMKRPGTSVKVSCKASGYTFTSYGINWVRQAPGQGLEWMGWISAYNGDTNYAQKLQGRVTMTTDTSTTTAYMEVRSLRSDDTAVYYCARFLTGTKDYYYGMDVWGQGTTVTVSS VL: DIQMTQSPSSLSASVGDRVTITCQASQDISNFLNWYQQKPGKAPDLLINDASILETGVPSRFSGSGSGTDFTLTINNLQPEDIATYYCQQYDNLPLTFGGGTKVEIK	koff	0.00631
H2M1811N (antibody, mouse IgG2, V domains shown, Human variable domains, mouse IgG2 Fc (prefix H2M)) VH: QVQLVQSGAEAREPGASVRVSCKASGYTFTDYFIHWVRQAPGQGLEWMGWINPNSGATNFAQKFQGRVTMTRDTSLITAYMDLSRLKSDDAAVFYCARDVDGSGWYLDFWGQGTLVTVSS VL: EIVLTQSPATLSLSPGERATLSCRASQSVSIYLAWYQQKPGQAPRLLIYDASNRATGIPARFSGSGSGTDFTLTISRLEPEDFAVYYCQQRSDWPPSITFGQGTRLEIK	koff	0.000849
H2M1709N (antibody, mouse IgG2, V domains shown, Human variable domains, mouse IgG2 Fc (prefix H2M)) VH: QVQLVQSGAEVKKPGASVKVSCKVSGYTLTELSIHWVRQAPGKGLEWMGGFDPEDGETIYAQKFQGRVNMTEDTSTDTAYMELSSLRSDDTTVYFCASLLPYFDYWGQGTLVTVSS VL: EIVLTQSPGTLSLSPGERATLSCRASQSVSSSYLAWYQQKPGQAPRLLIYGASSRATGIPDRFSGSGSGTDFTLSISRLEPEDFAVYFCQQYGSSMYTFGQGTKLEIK	koff	0.0058
H4H1713N (antibody, human IgG4, V domains shown, Human IgG4 Fc (prefix H4H)) VH: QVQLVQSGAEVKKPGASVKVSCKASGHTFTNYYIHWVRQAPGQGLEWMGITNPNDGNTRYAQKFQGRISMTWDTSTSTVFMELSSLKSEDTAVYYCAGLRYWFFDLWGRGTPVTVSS VL: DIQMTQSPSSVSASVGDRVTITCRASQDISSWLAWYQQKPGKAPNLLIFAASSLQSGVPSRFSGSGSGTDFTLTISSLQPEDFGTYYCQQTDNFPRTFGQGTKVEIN	koff	0.000174
H4H1781P (antibody, human IgG4, V domains shown, Human IgG4 Fc (prefix H4H)) VH: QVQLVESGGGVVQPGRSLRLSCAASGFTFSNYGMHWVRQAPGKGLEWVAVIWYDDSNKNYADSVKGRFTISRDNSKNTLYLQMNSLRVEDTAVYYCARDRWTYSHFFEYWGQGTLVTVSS VL: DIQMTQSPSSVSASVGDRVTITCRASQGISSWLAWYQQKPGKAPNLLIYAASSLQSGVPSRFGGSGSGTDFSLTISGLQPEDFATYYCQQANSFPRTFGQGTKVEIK	koff	3.3e-05

Exercise: Item under review: H2M1763N (antibody, mouse IgG2, V domains shown, Human variable domains, mouse IgG2 Fc (prefix H2M)) VH: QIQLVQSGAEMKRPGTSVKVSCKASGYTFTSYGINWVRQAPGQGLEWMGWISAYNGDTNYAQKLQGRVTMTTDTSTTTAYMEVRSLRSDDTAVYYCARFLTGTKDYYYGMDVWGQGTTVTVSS VL: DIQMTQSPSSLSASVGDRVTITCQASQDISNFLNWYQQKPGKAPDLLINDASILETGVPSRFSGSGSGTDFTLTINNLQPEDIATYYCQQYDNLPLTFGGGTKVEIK . Reported koff?
Solution: 0.00648
